Item-by-item account of MIC
- Tested on: methicillin-resistant Staphylococcus aureus (MRSA)
- assay_name: Determination of MIC values (BHI broth, 96 well microtiter plate)
- Assay type: cell-based
- recorded_conditions: Staphylococcus aureus, MRSA; BHI broth, overnight 37° C.; read-out: MIC MRSA
observed_property: MIC

[
  {
    "compound": "NCc1ccc(CNC(=O)c2cc(-c3c[nH]c4ccc(Br)cc34)nc3ccc(C#CCNCCc4ccccc4)cc23)cc1",
    "measurement": "< 7 mg/L"
  },
  {
    "compound": "Cn1cc(-c2cc(C(=O)O)c3ccc(F)cc3n2)c2cc(Br)ccc21",
    "measurement": "< 25 mg/L"
  },
  {
    "compound": "Cn1cc(-c2cc(C(=O)NCC3CCCC(CN)C3)c3ccc(I)cc3n2)c2cc(Br)ccc21 (stereo not shown)",
    "measurement": "< 7 mg/L"
  },
  {
    "compound": "NCCNC(=O)c1cc(-c2c[nH]c3ccc(Br)cc23)nc2c(Cl)c(Cl)ccc12",
    "measurement": "< 7 mg/L"
  },
  {
    "compound": "Cn1cc(-c2cc(C(=O)NCc3ccc(CN)cc3)c3cc(C#CCNCC4CCCCC4)ccc3n2)c2cc(Br)ccc21",
    "measurement": "< 7 mg/L"
  },
  {
    "compound": "Cn1cc(-c2cc(C(=O)NCc3ccc(CN)cc3)c3cc(I)ccc3n2)c2cc(Br)ccc21",
    "measurement": "< 7 mg/L"
  },
  {
    "compound": "Brc1ccc2[nH]cc(-c3nc4ccc(I)cc4c4c3CCO4)c2c1",
    "measurement": "< 7 mg/L"
  },
  {
    "compound": "NCc1ccc(/C=C/c2cc(-c3c[nH]c4ccc(Br)cc34)nc3cc(Br)ccc23)cc1",
    "measurement": "< 7 mg/L"
  },
  {
    "compound": "Cn1cc(-c2cc(C(=O)NCc3ccc(CN)cc3)c3cc(C#CCN4CC=CC4)ccc3n2)c2cc(Br)ccc21",
    "measurement": "> 25 mg/L"
  },
  {
    "compound": "CCOc1cc(-c2c[nH]c3ccc(Br)cc23)nc2ccc(I)cc12",
    "measurement": "< 7 mg/L"
  },
  {
    "compound": "NCc1cccc(CNC(=O)c2cc(-c3c[nH]c4ccc(Br)cc34)nc3c(F)cccc23)c1",
    "measurement": "< 7 mg/L"
  },
  {
    "compound": "Brc1ccc2c(CNCc3ccccc3)cc(-c3c[nH]c4ccc(Br)cc34)nc2c1",
    "measurement": "< 7 mg/L"
  },
  {
    "compound": "CC(C)(C)OC(=O)n1cc(-c2ccc3cc(I)ccc3n2)c2cc(Br)ccc21",
    "measurement": "> 25 mg/L"
  },
  {
    "compound": "Fc1ccc2c(-c3cc(Cl)c4ccccc4n3)c[nH]c2c1",
    "measurement": "< 7 mg/L"
  },
  {
    "compound": "NCc1ccc(CNC(=O)c2cc(-c3c[nH]c4ccc(Br)cc34)nc3ccc(C#CCN4CCSCC4)cc23)cc1",
    "measurement": "< 7 mg/L"
  },
  {
    "compound": "NCc1ccc(CNC(=O)c2cc(-c3c[nH]c4ccc(Cl)cc34)nc3ccc(I)cc23)cc1",
    "measurement": "< 7 mg/L"
  }
]
